Organism: Homo sapiens
assay.info: Inhibitory concentration required to reduce HSV-2 induced cytopathogenic effect in human skin fibroblast
Assay type: functional, organism-based
metric: EC50 (µM)
Answers are plain numbers, in µM.

Guide cases for EC50, answers given:
{"molecule": "O=c1[nH]c(=O)n([C@H]2C[C@H](O)[C@]3(CO)C[C@H]23)cc1Br", "meas.value": 2.2}
{"molecule": "O=c1[nH]c(=O)n([C@H]2C[C@H](O)[C@]3(CO)C[C@H]23)cc1I", "meas.value": 9.06}
{"molecule": "Cc1cn([C@H]2C[C@H](O)[C@]3(CO)C[C@H]23)c(=O)[nH]c1=O [(NORTH)-METHANOCARBATHYMIDINE]", "meas.value": 0.35}

Summary for this molecule, Nc1nc2c(ncn2COCCO)c(=O)[nH]1 [ACYCLOVIR] : EC50 is 10.2

The reported measurements were obtained from ChEMBL document CHEMBL1144911.
